Target: T1, blood platelet receptor glycoprotein Ib-IX-V complex (GPIb) (human, UniProt P07359 17-652; P13224 26-206; P14770 17-177; P40197 17-560)
T1 construct: whole, on cells; also called GPIb complex; GPIb receptor
T1 sequence (P07359 17-652, chain 1 of 4): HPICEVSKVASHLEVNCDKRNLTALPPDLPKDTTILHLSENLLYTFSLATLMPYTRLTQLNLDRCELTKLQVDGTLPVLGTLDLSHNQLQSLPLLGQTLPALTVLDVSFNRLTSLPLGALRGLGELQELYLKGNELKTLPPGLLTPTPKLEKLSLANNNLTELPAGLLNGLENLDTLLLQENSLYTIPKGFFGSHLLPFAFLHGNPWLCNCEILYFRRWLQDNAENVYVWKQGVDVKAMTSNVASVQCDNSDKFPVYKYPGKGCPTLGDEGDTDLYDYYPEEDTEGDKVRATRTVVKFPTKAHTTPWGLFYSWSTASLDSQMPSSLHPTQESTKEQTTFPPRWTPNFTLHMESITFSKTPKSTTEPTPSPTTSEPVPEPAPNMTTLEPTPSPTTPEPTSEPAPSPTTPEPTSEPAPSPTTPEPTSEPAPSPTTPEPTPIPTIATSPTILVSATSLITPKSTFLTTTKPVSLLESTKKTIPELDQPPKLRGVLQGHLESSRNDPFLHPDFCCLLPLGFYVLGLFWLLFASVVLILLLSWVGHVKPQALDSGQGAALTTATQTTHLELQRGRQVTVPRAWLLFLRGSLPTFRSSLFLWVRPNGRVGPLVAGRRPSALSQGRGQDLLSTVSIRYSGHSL
T1 sequence (P13224 26-206, chain 2 of 4): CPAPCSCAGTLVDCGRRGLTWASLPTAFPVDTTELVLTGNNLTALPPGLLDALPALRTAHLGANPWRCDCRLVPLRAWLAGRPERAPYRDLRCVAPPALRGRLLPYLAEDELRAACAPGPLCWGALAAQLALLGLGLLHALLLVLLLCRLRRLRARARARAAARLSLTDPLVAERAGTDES
T1 sequence (P14770 17-177, chain 3 of 4): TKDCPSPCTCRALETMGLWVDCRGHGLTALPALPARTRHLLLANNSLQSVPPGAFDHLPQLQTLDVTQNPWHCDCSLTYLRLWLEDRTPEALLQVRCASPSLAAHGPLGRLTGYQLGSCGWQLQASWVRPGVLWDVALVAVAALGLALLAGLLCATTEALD
T1 sequence (P40197 17-560, chain 4 of 4): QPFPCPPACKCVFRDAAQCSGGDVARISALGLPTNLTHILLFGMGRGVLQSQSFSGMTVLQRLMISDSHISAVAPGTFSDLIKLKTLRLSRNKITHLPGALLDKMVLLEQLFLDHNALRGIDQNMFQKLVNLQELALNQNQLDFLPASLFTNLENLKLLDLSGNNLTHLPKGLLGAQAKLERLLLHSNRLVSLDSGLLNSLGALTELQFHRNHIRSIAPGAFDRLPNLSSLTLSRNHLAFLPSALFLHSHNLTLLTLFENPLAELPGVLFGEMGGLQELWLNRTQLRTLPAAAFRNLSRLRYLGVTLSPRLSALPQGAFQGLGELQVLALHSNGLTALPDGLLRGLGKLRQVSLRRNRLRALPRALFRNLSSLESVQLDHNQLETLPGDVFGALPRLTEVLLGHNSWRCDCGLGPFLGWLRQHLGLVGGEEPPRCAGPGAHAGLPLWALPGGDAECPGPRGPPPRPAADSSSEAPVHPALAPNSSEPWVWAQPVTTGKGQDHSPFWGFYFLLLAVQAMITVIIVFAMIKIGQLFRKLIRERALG
Test: inhibition of static adhesion of human platelets to coated vWF-A1; grade C = IC50 lower than 1 µM
pIC50: −log10 of the molar value. Starred links: 1 amine or outer side, 2 acyl side, 3 side chain; linkers in the order of their positions; H or OH if unused. Non-standard residues stand in square brackets, D forms with d. Amb = L-2-amino-4-methoxybutyric acid, COCC[C@H](N[*:1])C(=O)[*:2]; Cha = N[C@@H](CC1CCCCC1)C(=O)O; Ahp = NCCCCCCC(=O)O
measured_property: pIC50

cyclo(LHNL[Ahp]TER[Amb]A) (SMILES COCC[C@@H]1NC(=O)[C@H](CCCNC(=N)N)NC(=O)[C@H](CCC(=O)O)NC(=O)[C@H]([C@@H](C)O)NC(=O)CCCCCCNC(=O)[C@H](CC(C)C)NC(=O)[C@H](CC(N)=O)NC(=O)[C@H](Cc2c[nH]cn2)NC(=O)[C@H](CC(C)C)NC(=O)[C@H](C)NC1=O) [Cyclo[Leu-His-Asn-Leu-NH-(CH2)6-CO-Thr-Glu-Arg-Amb-Ala]] :: > 6.00

# ---- query binder ----
Task: Quote pIC50 reported for cyclo([Cha]HNL[Ahp]TERMA) (SMILES CSCC[C@@H]1NC(=O)[C@H](CCCNC(=N)N)NC(=O)[C@H](CCC(=O)O)NC(=O)[C@H]([C@@H](C)O)NC(=O)CCCCCCNC(=O)[C@H](CC(C)C)NC(=O)[C@H](CC(N)=O)NC(=O)[C@H](Cc2c[nH]cn2)NC(=O)[C@H](CC2CCCCC2)NC(=O)[C@H](C)NC1=O) [Cyclo[Cha-His-Asn-Leu-NH-(CH2)6-CO-Thr-Glu-Arg-Met-Ala]] please.
Result: > 6.00
